Origin of measurements: patent US20170240637A1

- System Name: T1, 4Ig-B7H3 (human, UniProt Q5ZPR3 27-461, limits assumed)
- T1 construct: also called 4Ig-B73H3
- T1 sequence (looked up): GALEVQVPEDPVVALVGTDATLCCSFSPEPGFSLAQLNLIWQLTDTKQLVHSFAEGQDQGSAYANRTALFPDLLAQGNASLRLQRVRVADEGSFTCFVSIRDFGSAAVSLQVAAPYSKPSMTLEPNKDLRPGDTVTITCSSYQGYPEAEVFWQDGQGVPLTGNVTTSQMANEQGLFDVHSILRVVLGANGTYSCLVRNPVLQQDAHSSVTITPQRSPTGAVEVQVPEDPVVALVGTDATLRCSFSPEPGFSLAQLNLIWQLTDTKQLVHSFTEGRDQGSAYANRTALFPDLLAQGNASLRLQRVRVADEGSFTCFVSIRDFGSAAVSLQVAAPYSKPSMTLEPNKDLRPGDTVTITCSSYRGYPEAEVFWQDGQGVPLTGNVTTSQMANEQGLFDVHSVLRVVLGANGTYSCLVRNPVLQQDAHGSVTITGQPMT
- Test Name: SPR, antigen on CM5 chip
- Method: In brief, B7H3 antigen (either 2Ig-B7H3, 4Ig-B7H3, 2Ig-B7H3-mFc, 4Ig-B7H3-mFc), was directly immobilized onto the CM5 sensor chip via […]. Reference surface was set up for nonspecific binding and refractive index changes. For analysis of the kinetics of interactions, varying concentrations of scFvs were injected at flow rate of 30 μl/min using running buffer containing 10 mM HEPES, 150 mM NaCl, 3 mM EDTA, and 0.05% Surfactant P-20 (pH 7.4). […]
Experimental Readout: Kd (nM)
Answer with a number only, understood to be in nM.

Prompt: Which Kd value belongs to hu8H9-H1L1 IgG1 (antibody, V domains shown) VH: QVQLVQSGAEVKKPGASVKLSCKASGYTFTNYDINWVRQAPGQGLEWIGWIFPGDGSTQYNEKFKGKATLTTDTSTSTAYMELSSLRSEDTAVYFCARQTTATWFAYWGQGTLVTVSS VL: EIVMTQSPATLSVSPGERVTLSCRASQSISDYLHWYQQKPGQAPRLLIKYASQSISGIPARFSGSGSGTEFTLTISSVQPEDVGVYYCQNGHSFPLTFGQGTKLEIKR ?
Completion: 112

Prompt: Which Kd value belongs to hu8H9-H2L2 IgG1 (antibody, V domains shown) VH: QVQLVQSGAEVVKPGASVKLSCKASGYTFTNYDINWVRQAPGQGLEWIGWIFPGDGSTQYNEKFKGKATLTTDTSTSTAYMELSRLTSEDTAVYFCARQTTATWFAYWGQGTLVTVSS VL: EIVMTQSPATLSVSPGERVTLSCRASQSISDYLHWYQQKSHESPRLLIKYASQSISGIPARFSGSGSGTEFTLTINSVEPEDVGVYYCQNGHSFPLTFGQGTKLEIKR ?
Completion: 38.6

Prompt: Which Kd value belongs to hu8H9-H1L2 IgG1 (antibody, V domains shown) VH: QVQLVQSGAEVKKPGASVKLSCKASGYTFTNYDINWVRQAPGQGLEWIGWIFPGDGSTQYNEKFKGKATLTTDTSTSTAYMELSSLRSEDTAVYFCARQTTATWFAYWGQGTLVTVSS VL: EIVMTQSPATLSVSPGERVTLSCRASQSISDYLHWYQQKSHESPRLLIKYASQSISGIPARFSGSGSGTEFTLTINSVEPEDVGVYYCQNGHSFPLTFGQGTKLEIKR ?
Completion: 34.8

Prompt: Which Kd value belongs to hu8H9-H2L1 IgG1 (antibody, V domains shown) VH: QVQLVQSGAEVVKPGASVKLSCKASGYTFTNYDINWVRQAPGQGLEWIGWIFPGDGSTQYNEKFKGKATLTTDTSTSTAYMELSRLTSEDTAVYFCARQTTATWFAYWGQGTLVTVSS VL: EIVMTQSPATLSVSPGERVTLSCRASQSISDYLHWYQQKPGQAPRLLIKYASQSISGIPARFSGSGSGTEFTLTISSVQPEDVGVYYCQNGHSFPLTFGQGTKLEIKR ?
Completion: 34.8
